Biological target: T1, human ROR1 (hROR1) on cells (human, UniProt Q01973 30-937)
T1 construct: whole, on cells; the cell line is named under assay; also called HEK293T-hROR1; 293T-hROR1
T1 sequence (Q01973 30-937): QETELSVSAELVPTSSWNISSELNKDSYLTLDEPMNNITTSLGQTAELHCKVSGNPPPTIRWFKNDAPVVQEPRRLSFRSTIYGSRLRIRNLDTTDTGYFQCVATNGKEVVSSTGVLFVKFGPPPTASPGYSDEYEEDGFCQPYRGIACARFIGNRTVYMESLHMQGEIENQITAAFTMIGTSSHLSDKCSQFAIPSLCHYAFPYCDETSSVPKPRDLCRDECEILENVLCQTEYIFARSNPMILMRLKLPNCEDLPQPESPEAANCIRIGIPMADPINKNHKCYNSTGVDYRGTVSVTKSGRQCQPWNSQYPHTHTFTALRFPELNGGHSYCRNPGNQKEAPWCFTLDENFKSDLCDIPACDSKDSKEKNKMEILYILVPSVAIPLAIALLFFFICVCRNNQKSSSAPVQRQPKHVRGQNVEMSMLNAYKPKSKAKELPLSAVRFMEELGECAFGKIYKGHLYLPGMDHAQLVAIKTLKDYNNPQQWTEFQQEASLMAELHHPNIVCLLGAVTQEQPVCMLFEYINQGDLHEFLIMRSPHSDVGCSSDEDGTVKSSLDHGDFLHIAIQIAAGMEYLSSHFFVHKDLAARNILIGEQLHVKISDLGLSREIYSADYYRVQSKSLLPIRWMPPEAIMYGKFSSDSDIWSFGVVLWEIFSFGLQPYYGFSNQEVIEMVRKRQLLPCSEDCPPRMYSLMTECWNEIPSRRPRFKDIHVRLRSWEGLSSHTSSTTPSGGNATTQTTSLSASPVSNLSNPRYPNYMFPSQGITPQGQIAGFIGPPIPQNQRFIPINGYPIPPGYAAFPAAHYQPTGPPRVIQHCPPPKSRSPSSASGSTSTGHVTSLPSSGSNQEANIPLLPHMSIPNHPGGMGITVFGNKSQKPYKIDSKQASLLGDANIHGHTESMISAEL
Assay: FACS, HEK293T-hROR1 cells; cytometer saturated
observed.property: MAX(MFI)
Hi! Could you send only the number? It should be in MFI, unit omitted.

Documented MAX(MFI) of PR001363 (antibody, human IgG1, kappa, V domains shown, fully human IgG1, kappa) VH: QVQLVESGGGVVQPGRSLRLSCAASGFSFSSYAMHWVRQAPGRGLEWVAVIWYDGGDEDSIDSVKGRFTISRDDSKNTLYLQMNSLRAEDTAVYYCAREQARSFDLWGRGTLVTVSS VL: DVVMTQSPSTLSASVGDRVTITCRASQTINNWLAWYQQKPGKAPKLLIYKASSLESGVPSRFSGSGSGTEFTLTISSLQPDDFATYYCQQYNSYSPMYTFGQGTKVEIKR : 262000
